Molecular target: Cyclin-dependent kinase 1/cyclin B1 (Homo sapiens)
Sequence (P06493 whole entry): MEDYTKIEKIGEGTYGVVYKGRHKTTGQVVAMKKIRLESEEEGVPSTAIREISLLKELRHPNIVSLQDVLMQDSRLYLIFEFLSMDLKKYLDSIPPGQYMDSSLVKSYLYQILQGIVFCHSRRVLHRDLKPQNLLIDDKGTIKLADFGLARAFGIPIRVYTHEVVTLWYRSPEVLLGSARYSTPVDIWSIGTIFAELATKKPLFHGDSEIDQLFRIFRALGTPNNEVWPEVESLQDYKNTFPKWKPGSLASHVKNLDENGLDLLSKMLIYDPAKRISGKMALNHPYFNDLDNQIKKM
Sequence (P14635 whole entry, further chain): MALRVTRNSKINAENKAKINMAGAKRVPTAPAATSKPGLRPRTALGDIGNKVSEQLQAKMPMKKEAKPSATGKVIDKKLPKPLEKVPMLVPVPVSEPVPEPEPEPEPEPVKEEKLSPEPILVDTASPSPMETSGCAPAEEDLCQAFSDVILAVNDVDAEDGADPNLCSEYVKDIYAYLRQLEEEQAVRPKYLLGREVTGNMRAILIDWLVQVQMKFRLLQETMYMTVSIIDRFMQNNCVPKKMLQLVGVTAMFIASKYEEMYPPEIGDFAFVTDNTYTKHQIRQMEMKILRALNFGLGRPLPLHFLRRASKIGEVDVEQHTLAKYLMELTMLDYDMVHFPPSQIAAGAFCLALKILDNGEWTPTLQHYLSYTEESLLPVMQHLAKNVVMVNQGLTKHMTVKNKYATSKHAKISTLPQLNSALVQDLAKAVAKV
Experiment: Inhibition of CDK1/cyclin B
Measurement type: IC50

(Q) # lookup: IC50 of `C=CC(=O)NCc1coc(-c2c(N)ncnc2Nc2ccc(OCc3ccccn3)c(Cl)c2)n1`
(A) > 3 µM

----------
Target: Receptor tyrosine-protein kinase erbB-4 (Homo sapiens, UniProt Q15303)
Sequence (Q15303 whole entry): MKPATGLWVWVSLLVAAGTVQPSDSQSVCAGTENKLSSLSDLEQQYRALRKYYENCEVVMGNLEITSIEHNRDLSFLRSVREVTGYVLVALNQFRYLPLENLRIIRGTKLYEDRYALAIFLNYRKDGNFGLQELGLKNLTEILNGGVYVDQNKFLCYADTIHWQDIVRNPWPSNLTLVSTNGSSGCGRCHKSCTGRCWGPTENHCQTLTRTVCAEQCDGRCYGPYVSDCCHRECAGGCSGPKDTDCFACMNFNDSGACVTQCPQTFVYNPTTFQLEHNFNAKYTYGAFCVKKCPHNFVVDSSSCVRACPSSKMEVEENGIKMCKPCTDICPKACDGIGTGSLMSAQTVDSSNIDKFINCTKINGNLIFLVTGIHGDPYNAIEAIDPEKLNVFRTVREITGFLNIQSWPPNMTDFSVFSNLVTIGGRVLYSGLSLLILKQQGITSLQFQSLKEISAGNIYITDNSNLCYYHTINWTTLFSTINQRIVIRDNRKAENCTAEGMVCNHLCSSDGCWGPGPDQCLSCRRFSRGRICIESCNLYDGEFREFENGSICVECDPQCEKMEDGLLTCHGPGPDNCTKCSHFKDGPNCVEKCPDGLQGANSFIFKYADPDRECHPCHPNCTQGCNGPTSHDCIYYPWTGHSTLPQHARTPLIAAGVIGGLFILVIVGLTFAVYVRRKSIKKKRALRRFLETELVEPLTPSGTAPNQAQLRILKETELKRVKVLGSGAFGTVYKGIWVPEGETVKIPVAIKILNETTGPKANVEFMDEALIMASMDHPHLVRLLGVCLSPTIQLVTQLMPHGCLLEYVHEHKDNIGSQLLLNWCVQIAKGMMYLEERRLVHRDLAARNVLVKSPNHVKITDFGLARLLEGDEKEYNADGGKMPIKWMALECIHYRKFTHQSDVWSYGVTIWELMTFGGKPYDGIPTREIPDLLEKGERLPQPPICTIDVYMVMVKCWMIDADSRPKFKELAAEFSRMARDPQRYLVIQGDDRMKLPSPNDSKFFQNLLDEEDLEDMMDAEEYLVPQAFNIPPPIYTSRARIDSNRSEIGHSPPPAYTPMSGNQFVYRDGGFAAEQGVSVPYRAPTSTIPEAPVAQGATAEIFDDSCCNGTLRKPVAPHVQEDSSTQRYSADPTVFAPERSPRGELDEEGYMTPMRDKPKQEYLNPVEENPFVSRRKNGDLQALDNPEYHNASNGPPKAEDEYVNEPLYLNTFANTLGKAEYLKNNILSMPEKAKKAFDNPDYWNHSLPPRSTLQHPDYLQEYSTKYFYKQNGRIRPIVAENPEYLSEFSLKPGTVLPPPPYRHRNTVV
Measurement type: pIC50
// pIC50 here means minus log10 of the molar concentration (mol/L)

(Q) Notebook entry, Receptor tyrosine-protein kinase erbB-4 (Homo sapiens, UniProt Q15303) assay: pIC50 of `C=CC(=O)NCc1coc(-c2c(N)ncnc2Nc2ccc(OCc3ccccn3)c(Cl)c2)n1` = ?
(A) 8.40
